// kon lookup, one value per entry
- STUDY_SYSTEM: T1, IL-13RA2 huFc (human)
- T1 construct: Expressed in 293F cells, purified on protein A; also called human IL13RA2; recombinant IL-13RA2
- T1 sequence (chain, as listed by the source limits assumed): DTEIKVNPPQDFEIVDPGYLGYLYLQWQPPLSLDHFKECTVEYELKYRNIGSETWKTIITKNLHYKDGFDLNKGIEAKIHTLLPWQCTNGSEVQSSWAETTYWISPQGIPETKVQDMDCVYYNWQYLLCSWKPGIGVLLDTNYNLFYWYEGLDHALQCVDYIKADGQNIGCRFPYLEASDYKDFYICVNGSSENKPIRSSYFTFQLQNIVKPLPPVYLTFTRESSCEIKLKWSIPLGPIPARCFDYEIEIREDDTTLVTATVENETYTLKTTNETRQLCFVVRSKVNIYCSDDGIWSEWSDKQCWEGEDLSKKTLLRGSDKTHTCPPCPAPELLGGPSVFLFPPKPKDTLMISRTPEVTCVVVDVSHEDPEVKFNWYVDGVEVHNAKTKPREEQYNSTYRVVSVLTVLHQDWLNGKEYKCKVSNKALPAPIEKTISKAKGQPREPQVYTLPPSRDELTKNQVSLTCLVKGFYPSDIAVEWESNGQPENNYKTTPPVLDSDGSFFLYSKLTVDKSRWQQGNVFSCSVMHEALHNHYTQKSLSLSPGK
- METHOD_DESCRIPTION: SPR (Biacore T200), scFv_Fc forms on IL-13RA2 huFc, summary table
- Procedure: IL-13RA2 huFc was coated on the CMS chip by amino coupling, coated to about 500 RU, and the gradiently diluted antibodies were passed through the antigen-coated channel at a flow rate of 30 ul/min as a mobile phase. […] The experimental data was analyzed by BIAevaluation 3.2 and the kinetic curves were fitted using a 1:1 langmuir model. Affinity was determined using the method of Example 5 using biacore T200, and the results are shown as in FIGS. 11B-11G. […]
Give a bare numeral; the unit M⁻¹ s⁻¹ is implied.

2D4 (scFv_Fc form) (Fc fusion, not shown: human Fc segment of the eukaryotic expression vector V152) scFv: EVQLLESGGGLVQPGGSLRLSCAASGFTFRKYAMGWVRQAPGKGLEWVSGISGSVGSTYYADSVKGRFTISRDNSKNTLYLQMNSLRAEDTAVYYCAKVRYGWGAGAFDYWGQGTLVTVSSGGGGSGGGGSGGGGSDIQMTQSPSTLSASVGDRVTITCRASQSISSWLAWYQQKPGKAPKLLIYDASSLESGVPSRFSGSGSGTEFTLTISSLQPDDFATYYCQQYDTYPPITFGQGTKVEIK ... 646000

Exercise: What does the record list as kon for 5G3 (scFv_Fc form) (Fc fusion, not shown: human Fc segment of the eukaryotic expression vector V152) scFv: EVQLLESGGGLVQPGGSLRLSCAASGFTFSSYVLSWVRQAPGKGLEWVSAIRGSAGNTYYADSVKGRFTISRDNSKNTLYLQMNSLRAEDTAVYYCARVAFSGSFDYWGQGTLVTVSSGGGGSGGGGSGGGGSDIQMTQSPSTLSASVGDRVTITCRASQSISSWLAWYQQKPGKAPKLLIYDASSLESGVPSRFSGSGSGTEFTLTISSLQPDDFATYYCQQRNRYPPTFGQGTKVEIK ?
Solution: 690000
